- EXPERIMENTAL_TARGET: Receptor-type tyrosine-protein phosphatase alpha (Homo sapiens)
- Sequence (P18433 whole entry): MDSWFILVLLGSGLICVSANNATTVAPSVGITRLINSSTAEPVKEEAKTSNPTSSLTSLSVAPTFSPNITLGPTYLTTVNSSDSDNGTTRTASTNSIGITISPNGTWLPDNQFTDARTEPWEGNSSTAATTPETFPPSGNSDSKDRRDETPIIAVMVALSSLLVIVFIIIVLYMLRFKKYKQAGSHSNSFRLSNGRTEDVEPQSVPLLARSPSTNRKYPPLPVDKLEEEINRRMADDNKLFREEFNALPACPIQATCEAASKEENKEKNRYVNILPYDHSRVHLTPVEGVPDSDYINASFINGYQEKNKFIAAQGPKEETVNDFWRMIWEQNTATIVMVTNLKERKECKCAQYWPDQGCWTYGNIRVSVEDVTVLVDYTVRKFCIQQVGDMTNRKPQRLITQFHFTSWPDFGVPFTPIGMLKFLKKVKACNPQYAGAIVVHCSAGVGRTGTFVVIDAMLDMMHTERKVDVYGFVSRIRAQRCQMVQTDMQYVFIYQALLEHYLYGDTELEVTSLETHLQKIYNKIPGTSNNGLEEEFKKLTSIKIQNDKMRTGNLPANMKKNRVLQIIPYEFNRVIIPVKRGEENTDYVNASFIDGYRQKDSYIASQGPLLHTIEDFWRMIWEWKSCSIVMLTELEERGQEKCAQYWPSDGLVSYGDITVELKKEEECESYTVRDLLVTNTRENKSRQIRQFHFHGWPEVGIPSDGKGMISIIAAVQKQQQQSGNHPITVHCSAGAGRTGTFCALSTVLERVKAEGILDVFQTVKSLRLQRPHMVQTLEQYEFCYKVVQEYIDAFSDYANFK
- PROCEDURE_SUMMARY: Inhibitory effect against human protein-tyrosine phosphatase alpha (PTPalpha), using p-nitrophenyl phosphate substrate at pH 5.5.
Ki under 700 µM gets TRUE, anything at or over 700 µM gets FALSE.

Cc1cccc(C(=O)O)c1NC(=O)C(=O)O    FALSE
Cc1csc(C(=O)O)c1NC(=O)C(=O)O    FALSE
O=C(O)C(=O)Nc1cc(-c2ccc(F)cc2)sc1C(=O)O    TRUE
O=C(O)C(=O)Nc1ccsc1C(=O)O    FALSE
O=C(O)C(=O)Nc1cnccc1C(=O)O    FALSE

Query: Strictly below 700 µM in Ki? `COc1cccc(-c2cc(NC(=O)C(=O)O)c(C(=O)O)s2)c1`
Response: TRUE

Query: Strictly below 700 µM in Ki? `CN(C(=O)C(=O)O)c1ccccc1C(=O)O`
Response: FALSE

Query: Strictly below 700 µM in Ki? `COc1ccc(-c2cc(NC(=O)C(=O)O)c(C(=O)O)s2)cc1`
Response: TRUE

Query: Strictly below 700 µM in Ki? `O=C(O)C(=O)Nc1ccc(-c2ccccc2)cc1C(=O)O`
Response: TRUE

Query: Strictly below 700 µM in Ki? `O=C(O)C(=O)Nc1sc2c(c1C(=O)O)CCOC2`
Response: TRUE

Query: Strictly below 700 µM in Ki? `O=C(O)C(=O)Nc1cc2[nH]ccc2cc1C(=O)O`
Response: TRUE

Query: Strictly below 700 µM in Ki? O=C(O)C(=O)Nc1sc2c(c1C(=O)O)CCC(O)C2 (stereo unspecified)
Response: TRUE

Query: Strictly below 700 µM in Ki? `O=C(O)C(=O)Nc1ccccc1C(=O)O`
Response: FALSE

Query: Strictly below 700 µM in Ki? `COc1ccc(-c2cc(NC(=O)C(=O)O)c(C(=O)O)s2)cc1OC`
Response: FALSE

Query: Strictly below 700 µM in Ki? `Cc1cccc(NC(=O)C(=O)O)c1C(=O)O`
Response: FALSE

###

- EXPERIMENTAL_TARGET: Tyrosine-protein phosphatase non-receptor type 1 (Homo sapiens, UniProt P18031)
- PROCEDURE_SUMMARY: Inhibition of human recombinant Protein-tyrosine phosphatase 1B.
ENDPOINT_NAME: pKi
Scale explanation: pKi corresponds to minus log10 of a concentration expressed in moles per litre.

O=C(O)C(=O)Nc1sc2c(c1C(=O)O)CCN(Cc1ccncc1)C2    4.92

Query: Identify measured pKi corresponding to `O=C(O)C(=O)Nc1sc2c(c1C(=O)O)CCN(CCc1ccncc1)C2`
Response: 5.06

Query: Identify measured pKi corresponding to `COc1cccc(CN2CCc3c(sc(NC(=O)C(=O)O)c3C(=O)O)C2)c1`
Response: 5.08

Query: Identify measured pKi corresponding to `O=C(O)C(=O)Nc1sc2c(c1C(=O)O)CCN(CCc1ccccn1)C2`
Response: 4.92

Query: Identify measured pKi corresponding to `O=C(O)C(=O)Nc1sc2c(c1C(=O)O)CCN(CCc1ccsc1)C2`
Response: 5.05

###

- EXPERIMENTAL_TARGET: Tyrosine-protein phosphatase non-receptor type 1 (Homo sapiens, UniProt P18031)
- Sequence (P18031 whole entry): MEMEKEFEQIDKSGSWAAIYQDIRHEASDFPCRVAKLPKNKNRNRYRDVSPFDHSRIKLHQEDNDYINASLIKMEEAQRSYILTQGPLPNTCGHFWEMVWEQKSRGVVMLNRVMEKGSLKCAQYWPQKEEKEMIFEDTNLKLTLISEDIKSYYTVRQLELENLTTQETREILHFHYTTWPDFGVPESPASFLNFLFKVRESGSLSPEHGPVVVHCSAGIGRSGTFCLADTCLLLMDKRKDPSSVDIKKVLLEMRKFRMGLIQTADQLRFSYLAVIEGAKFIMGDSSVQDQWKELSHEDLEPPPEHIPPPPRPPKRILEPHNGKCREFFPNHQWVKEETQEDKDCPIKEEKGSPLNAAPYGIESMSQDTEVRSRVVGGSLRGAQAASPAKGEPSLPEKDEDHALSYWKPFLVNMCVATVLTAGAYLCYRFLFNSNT
- PROCEDURE_SUMMARY: Inhibitory effect against recombinant human protein-tyrosine phosphatase 1B (PTP1B), using p-nitrophenyl phosphate substrate at pH 5.5.
Ki under 8 µM gets met, anything at or over 8 µM gets not met.

O=C(O)C(=O)Nc1sc2c(c1C(=O)O)CCN(Cc1ccccc1)C2    met
O=C(O)C(=O)Nc1cc(-c2ccccc2)sc1C(=O)O    not met
O=C(O)C(=O)Nc1sc2c(c1C(=O)O)CC[S+]([O-])C2 (configuration not stated)    met
O=C(O)C(=O)Nc1cc(-c2ccc(Cl)cc2)sc1C(=O)O    not met
COc1ccc(-c2cc(NC(=O)C(=O)O)c(C(=O)O)s2)cc1OC    not met

Then this compound:
Query: Strictly below 8 µM in Ki? `O=C(O)C(=O)Nc1sc2c(c1C(=O)O)CCN(Cc1cccnc1)C2`
Response: met
